This section presents compounds with their documented pIC50 values.
Tested on: B16F10 melanoma cells
TEST_DESCRIPTION: MTT assay, cytotoxicity of hypomethylating agents
Format: cell-based
PROTOCOL_CONDITIONS: Mus musculus, B16-F10; MTT, 72 h incubation; read-out: IC50 against B16F10 melanoma cells
Keep in mind that pIC50 stands for -log10 of concentration in molar terms.

Field: example entries. Status: answers known.
O=c1ncccn1[C@@H]1O[C@H](CO)[C@@H](O)[C@H]1O | 4.16
Nc1nc(=O)n([C@H]2C[C@H](O)[C@@H](CO)O2)cc1F | 5.98

Next, consider the following compound.
State its pIC50: Nc1ncn([C@@H]2O[C@H](CO)[C@@H](O)[C@H]2O)c(=O)n1
4.31
